Attribution: patent US11492345B2

inhibition at 1 µM values by entry
Target: human Nav1.6 (hNav1.6) (Homo sapiens)
Construct: expressed in transfected cells; host or cells: HEK-293 (G418 selection)
Sequence (Q9UQD0 whole entry): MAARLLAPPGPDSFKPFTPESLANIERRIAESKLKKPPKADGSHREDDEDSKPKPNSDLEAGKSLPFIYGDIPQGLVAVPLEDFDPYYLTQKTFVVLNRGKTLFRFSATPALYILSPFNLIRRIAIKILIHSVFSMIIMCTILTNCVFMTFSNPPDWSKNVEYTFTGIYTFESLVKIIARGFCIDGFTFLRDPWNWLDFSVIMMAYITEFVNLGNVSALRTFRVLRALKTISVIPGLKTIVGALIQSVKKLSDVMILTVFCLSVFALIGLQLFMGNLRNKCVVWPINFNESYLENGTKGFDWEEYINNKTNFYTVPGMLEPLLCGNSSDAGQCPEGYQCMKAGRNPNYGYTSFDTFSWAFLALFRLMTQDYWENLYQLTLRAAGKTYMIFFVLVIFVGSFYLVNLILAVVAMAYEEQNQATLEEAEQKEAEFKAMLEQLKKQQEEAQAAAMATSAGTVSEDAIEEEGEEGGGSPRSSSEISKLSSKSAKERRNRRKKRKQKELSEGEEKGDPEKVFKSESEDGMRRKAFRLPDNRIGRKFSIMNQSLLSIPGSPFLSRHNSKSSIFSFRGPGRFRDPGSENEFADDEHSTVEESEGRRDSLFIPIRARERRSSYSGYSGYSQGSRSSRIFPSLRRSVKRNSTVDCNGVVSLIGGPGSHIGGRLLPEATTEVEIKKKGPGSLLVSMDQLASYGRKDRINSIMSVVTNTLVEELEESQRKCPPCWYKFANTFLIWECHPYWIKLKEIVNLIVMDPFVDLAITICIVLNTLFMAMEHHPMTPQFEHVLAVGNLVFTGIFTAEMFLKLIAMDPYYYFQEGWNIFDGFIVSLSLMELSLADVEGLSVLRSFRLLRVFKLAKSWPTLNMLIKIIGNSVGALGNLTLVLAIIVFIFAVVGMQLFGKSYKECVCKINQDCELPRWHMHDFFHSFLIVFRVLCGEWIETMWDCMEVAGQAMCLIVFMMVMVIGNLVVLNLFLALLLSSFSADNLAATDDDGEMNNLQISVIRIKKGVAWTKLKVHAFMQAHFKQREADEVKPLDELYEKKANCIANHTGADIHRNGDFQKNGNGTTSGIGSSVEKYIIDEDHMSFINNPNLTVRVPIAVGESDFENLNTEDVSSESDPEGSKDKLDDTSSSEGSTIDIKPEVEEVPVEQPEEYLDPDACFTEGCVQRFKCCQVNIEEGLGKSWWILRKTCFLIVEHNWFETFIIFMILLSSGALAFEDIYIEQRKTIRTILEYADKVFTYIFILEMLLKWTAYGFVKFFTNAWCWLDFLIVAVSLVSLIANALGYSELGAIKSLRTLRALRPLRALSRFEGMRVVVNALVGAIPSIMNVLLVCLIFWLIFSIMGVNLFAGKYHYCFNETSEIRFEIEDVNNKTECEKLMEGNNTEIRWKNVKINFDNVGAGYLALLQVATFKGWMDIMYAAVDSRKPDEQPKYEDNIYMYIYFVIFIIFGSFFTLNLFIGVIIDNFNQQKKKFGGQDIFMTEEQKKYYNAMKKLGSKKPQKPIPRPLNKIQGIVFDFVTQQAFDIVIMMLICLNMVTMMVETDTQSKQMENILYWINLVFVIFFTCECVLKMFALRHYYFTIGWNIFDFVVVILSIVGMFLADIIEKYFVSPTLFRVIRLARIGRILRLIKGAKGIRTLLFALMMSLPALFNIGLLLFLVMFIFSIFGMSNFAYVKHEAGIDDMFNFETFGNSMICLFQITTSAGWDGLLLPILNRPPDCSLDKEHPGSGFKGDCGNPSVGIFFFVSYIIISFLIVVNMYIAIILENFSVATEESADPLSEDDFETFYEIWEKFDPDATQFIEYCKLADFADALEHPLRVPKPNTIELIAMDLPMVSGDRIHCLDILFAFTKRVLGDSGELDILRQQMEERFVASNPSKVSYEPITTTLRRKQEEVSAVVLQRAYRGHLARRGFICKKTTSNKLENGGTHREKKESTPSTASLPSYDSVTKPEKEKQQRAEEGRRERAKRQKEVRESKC
Test: Modulation of late sodium current (INaL), PatchXpress electrophysiology
Assay type: cell-based
Conditions: HEK293; 1 μM compound; HEK-293 cells expressing recombinant human Nav channel; late current evoked by 300 nM ATX-II; steady-state inhibition; read-out: INaL v1.6 (1 μM, % Inhibition)
readout: inhibition at 1 µM

1. CO[C@@H]1CCN(C(=O)Cn2c(=O)oc3ccc(-c4ccc(OC(F)(F)F)cc4)cc32)C1 [Compound 126] | 30 to 70%
2. O=c1oc2ccc(-c3ccc(OC(F)(F)F)cc3)cc2n1Cc1cnccn1 [Compound 131] | > 70%
3. Cn1c(=O)oc2ccc(-c3ccc(OC(F)(F)F)cc3)nc21 [Compound 75] | > 70%
4. CCn1c(=O)oc2ccc(-c3cnc(OCC(F)(F)F)c(F)c3)nc21 [Compound 71] | < 30%
